Test: Bioavailability in rats, blood levels by HPLC
Assay type: in vivo
Conditions: rat, oral gavage, 50 mg/kg single dose, 1h, whole blood
Method: Bioavailability of compound (20) was determined in rats. A single dose of 50 mg/kg was administered by oral gavage or intraperitoneal (IP) injection in a vehicle consisting of olive oil-10% ethanol. […] Whole blood was extracted with acetonitrile-methanol (90/10 vol:vol) and the concentration of compound per ml of blood was determined by HPLC. […] After oral administration, blood levels of 0.5µM, 1µM, 2µM, 12µM, and 3µM were measured at .05h, 1h, 2h, 4h, and 8h, respectively.
OBSERVATION_TYPE: concentration at 1 h

Problem: Which concentration at 1 h is listed for COc1cc(C(=O)C(=O)N2CCCC[C@H]2C(=O)OC(CCCc2ccccc2)CCCc2ccccn2)cc(OC)c1OC (stereo partly shown) ?
Result: 1000 nM

---

test system: PBLs stimulated with JVM human viral-transformed B lymphoblastoid cell line; assay: MLR bioassay, PBLs stimulated with JVM cells; type: cell-based; conditions: mixed lymphocyte reaction, JVM stimulator cells, inhibition of proliferation, read-out: JVM
OBSERVATION_TYPE: pIC50
Give bare numbers, as −log10 of the molar value.

Please review the following examples before continuing.
INSERT INTO results (compound, numeric_value) VALUES
  ('COc1cc(C(=O)C(=O)N2CCCC[C@H]2C(=O)OC(CCCc2ccccc2)CCCc2ccccc2)cc(OC)c1OC', 5.07),
  ('COc1cc(C(=O)C(=O)N2CCCC[C@H]2C(=O)OC(CCCc2ccccc2)CCCc2cccc(CO)c2)cc(OC)c1OC (some centres unmarked)', 5.52),
  ('COc1cc(C(=O)C(=O)N2CCCC[C@H]2C(=O)OC(CCCc2ccccc2)c2ccccc2)cc(OC)c1OC (some centres unmarked)', 5.05),
  ('COc1cc(C(=O)C(=O)N2CCCC[C@H]2C(=O)OC(CCCc2ccccc2)CCCc2cccc(C(=O)O)c2)cc(OC)c1OC (some centres unmarked)', 5.05),
  ('COc1cc(C(=O)C(=O)N2CCCC[C@H]2C(=O)OC(CCCc2ccccc2)CCc2ccccc2)cc(OC)c1OC (some centres unmarked)', 5.00),
  ('CC(C)(C)C(=O)C(=O)N1CCCC[C@H]1C(=O)OC(CCCc1ccccc1)CCCc1ccccn1 (mixture of isomers)', 5.15),
  ('COc1cc(C(=O)C(=O)N2CCCC[C@H]2C(=O)OC(CCCc2ccccc2)/C(C)=C/[C@H]2CC[C@H](O)CC2)cc(OC)c1OC (mixture of isomers)', 5.00),
  ('COc1cc(C(=O)C(=O)N2CCCC[C@H]2C(=O)OC(CCCc2ccccc2)c2cccnc2)cc(OC)c1OC (some centres unmarked)', 5.30);

Quick batch: pIC50 for everything below.
1. COc1cc(C(=O)C(=O)N2CCCC[C@H]2C(=O)OC(CCCc2ccccc2)CCCn2cnc3ccccc32)cc(OC)c1OC (some centres unmarked)
2. COc1cc(C(=O)C(=O)N2CCCC[C@H]2C(=O)OC(CCCc2ccccc2)c2ccccc2CO)cc(OC)c1OC (some centres unmarked)
3. COc1cc(C(=O)C(=O)N2CCCC[C@H]2C(=O)OC(CCCc2ccccc2)CCCc2ccccn2)cc(OC)c1OC (some centres unmarked)
4. COc1cc(C(=O)C(=O)N2CCCC[C@H]2C(=O)OC(CCCc2c[nH]c3ccccc23)Cc2ccccc2)cc(OC)c1OC (mixture of isomers)
5. O=C(C(=O)N1CCCC[C@H]1C(=O)OC(CCCc1ccccc1)CCCc1cccnc1)c1ccccc1 (some centres unmarked)
6. COc1cc(C(=O)C(=O)N2CCC[C@H]2C(=O)OC(CCCc2ccccc2)CCCc2ccccn2)cc(OC)c1OC (some centres unmarked)

Result:
1: 5.10; 2: 5.35; 3: 5.60; 4: 5.19; 5: 5.05; 6: 5.15

Quick batch: pIC50 for everything below.
1. COc1cc(C(=O)C(=O)N2CCCC[C@H]2C(=O)OC(CCCc2ccccc2)CCc2cccnc2)cc(OC)c1OC (mixture of isomers)
2. COc1cc(C(=O)C(=O)N2CCCC[C@H]2C(=O)OC(CCCc2ccccc2)c2cccc(CO)c2)cc(OC)c1OC (some centres unmarked)
3. COc1cc(C(=O)C(=O)N2CCCC[C@H]2C(=O)OC(CCCc2ccccc2)CCCc2ccc[n+]([O-])c2)cc(OC)c1OC (mixture of isomers)
4. O=C(C(=O)N1CCCC[C@H]1C(=O)OC(CCCc1ccccc1)CCCc1cccnc1)c1cccc(OCc2ccccc2)c1 (some centres unmarked)

Result:
1: 5.30; 2: 5.66; 3: 5.60; 4: 5.22

Problem: Which pIC50 is listed for COc1cc(C(=O)C(=O)N2CCCC[C@H]2C(=O)OC(CCCc2ccccc2)CCCc2ccc(CO)cc2)cc(OC)c1OC (some centres unmarked) ?
Result: 5.60
